# Tested on: NCI60 human cancer cell line panel
# experimental-conditions: read-out: LC50; leukemia panel (CCRF-CEM, HL-60(TB), K-562, MOLT-2, RPMI-8226, SR)
assay-readout: CC50

// CC50 lookup, compound = CC(C)(N)C(=O)[O-].O.O=[N+]([O-])[O-].[Cu+2].c1cnc2c(c1)ccc1cccnc12 [Cu(II) complex, [Cu(phen)(C-dmg)(H2O)]NO3] , result: > 100 µM

====

# System: NCI60 human cancer cell line panel
# experimental-conditions: read-out: LC50; all renal cell lines
assay-readout: CC50

// CC50 lookup, compound = CC(C)(N)C(=O)[O-].O.O=[N+]([O-])[O-].[Cu+2].c1cnc2c(c1)ccc1cccnc12 [Cu(II) complex, [Cu(phen)(C-dmg)(H2O)]NO3] , result: 1 to 10 µM

====

# assay-target: CYP 2D6 (Homo sapiens, UniProt P10635)
# Construct: tissue Sekisui Xeno Tech, LLC; host or cells: pooled human liver microsomes
# Sequence (P10635 whole entry): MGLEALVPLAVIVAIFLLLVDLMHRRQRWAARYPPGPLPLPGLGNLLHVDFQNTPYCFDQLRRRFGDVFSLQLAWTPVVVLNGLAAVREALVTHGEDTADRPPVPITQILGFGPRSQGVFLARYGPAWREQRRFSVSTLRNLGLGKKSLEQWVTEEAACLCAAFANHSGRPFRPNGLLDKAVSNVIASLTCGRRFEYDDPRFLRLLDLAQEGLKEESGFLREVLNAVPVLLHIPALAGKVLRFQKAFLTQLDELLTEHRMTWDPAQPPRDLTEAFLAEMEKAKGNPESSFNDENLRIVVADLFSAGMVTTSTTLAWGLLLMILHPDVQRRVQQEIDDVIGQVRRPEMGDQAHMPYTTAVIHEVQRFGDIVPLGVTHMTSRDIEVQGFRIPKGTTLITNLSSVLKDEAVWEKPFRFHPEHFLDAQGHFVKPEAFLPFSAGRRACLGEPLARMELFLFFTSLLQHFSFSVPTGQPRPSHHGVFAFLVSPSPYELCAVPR
# test-name: CYP450 inhibition assay, pooled human liver microsomes
# Assay type: in vitro ADME
# experimental-conditions: probe dextromethorphan
assay-readout: IC50

// IC50 lookup, molecule = CC(C)(N)C(=O)[O-].O.O=[N+]([O-])[O-].[Cu+2].c1cnc2c(c1)ccc1cccnc12 [Cu(II) complex, [Cu(phen)(C-dmg)(H2O)]NO3] , result: 10.2 µM

====

# assay-target: CYP 3A4 (Homo sapiens, UniProt P08684)
# Construct: tissue Sekisui Xeno Tech, LLC; host or cells: pooled human liver microsomes
# Sequence (P08684 whole entry): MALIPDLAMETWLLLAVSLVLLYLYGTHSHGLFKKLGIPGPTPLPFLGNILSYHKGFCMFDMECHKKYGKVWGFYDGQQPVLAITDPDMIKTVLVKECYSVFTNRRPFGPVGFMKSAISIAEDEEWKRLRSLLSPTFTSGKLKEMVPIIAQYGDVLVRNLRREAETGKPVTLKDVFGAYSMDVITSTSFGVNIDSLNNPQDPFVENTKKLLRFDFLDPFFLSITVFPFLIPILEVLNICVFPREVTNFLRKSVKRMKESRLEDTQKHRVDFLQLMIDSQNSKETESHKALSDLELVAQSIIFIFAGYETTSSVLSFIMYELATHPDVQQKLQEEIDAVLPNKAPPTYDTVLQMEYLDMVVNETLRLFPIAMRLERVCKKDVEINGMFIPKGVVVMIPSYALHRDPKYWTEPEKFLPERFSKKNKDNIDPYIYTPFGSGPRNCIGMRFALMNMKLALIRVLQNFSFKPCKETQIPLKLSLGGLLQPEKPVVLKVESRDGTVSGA
# test-name: CYP450 inhibition assay, pooled human liver microsomes
# Assay type: in vitro ADME
# experimental-conditions: probe midazolam
assay-readout: IC50
Be sure to follow the number with its unit.

// IC50 lookup, compound = CC(C)(N)C(=O)[O-].O.O=[N+]([O-])[O-].[Cu+2].c1cnc2c(c1)ccc1cccnc12 [Cu(II) complex, [Cu(phen)(C-dmg)(H2O)]NO3] , result: 5.46 µM

Source of measurements: paper PMC5766233
